- System: SK-MEL-28 melanoma
- protocol details: NCI-60 one-dose screen, 48 h (100 = growth as untreated, 0 = no growth, -100 = all killed)
- recorded conditions: 10 µM
This is part of a sample that, as a whole, favours compounds with a hit. Of some 83,000 tested, about 20% had one in any assay.
Task for the reader: assign each of the following compounds its reported growth.
Expressed in %, but write only the number.

Request: Find growth (SK-MEL-28 melanoma) for the entry C/C(=N\NC(N)=S)c1ccc(Nc2nc(SC(C)C)nc(-c3ccccc3)c2C#N)cc1
Response: 80.9

Request: Requested read-out growth, target or system SK-MEL-28 melanoma, entry COc1ccc2[nH]cc(/C=N/Nc3ccc(Br)cn3)c2c1
Response: 61.5

Request: Short answer please: growth, SK-MEL-28 melanoma, entry COc1ccc(-c2ccc(/C=N/NC(=O)c3[nH]c4ccc(Br)cc4c3-c3ccccc3)o2)cc1
Response: 46.9

Request: Under SK-MEL-28 melanoma: growth value of N#Cc1ccc(-c2nn(-c3ccc(C(=O)O)cc3)cc2CNc2cc(Cl)cc(Cl)c2)cc1 ?
Response: 18.1

Request: Query growth on SK-MEL-28 melanoma for O=c1[nH]n(C(=S)N/N=C/c2ccc(F)cc2)c(=O)c2ccccc12
Response: 91.5

Request: Value wanted: growth (SK-MEL-28 melanoma) of entry CC(C)CCSc1nc(NC2CC2)c(C#N)c(-c2ccc(C(C)C)cc2)n1
Response: 110

Request: Value wanted: growth (SK-MEL-28 melanoma) of entry Cc1ccc(/C(CSc2nnc(-c3c[nH]c4ccccc34)n2-c2ccccc2)=N/O)cc1
Response: 62.5

Request: Query the reported growth for SK-MEL-28 melanoma; item: COc1ccc2nc(Cl)c(-c3cc(-c4ccccc4)nc(=S)[nH]3)cc2c1
Response: 50

Request: Lab note: need growth for C=C[C@H]1[C@H](O[C@@H]2OC(CO)[C@@H](O)[C@H](O)C2OC(=O)c2c(O)cc(O)cc2-c2cccc(O)c2)OC=C2C(=O)OCC[C@H]21 (some centres undefined) on SK-MEL-28 melanoma, anyone have it?
Response: 102

###

What growth was measured for each of the following?
- Test system: HT29 colon
- protocol details: NCI-60 one-dose screen, 48 h (100 = growth as untreated, 0 = no growth, -100 = all killed)
- recorded conditions: 10 µM
This is part of a sample that, as a whole, favours compounds with a hit. Of some 83,000 tested, about 20% had one in any assay.
Provide only the numeric value, understood in %.

Request: Report growth for COc1ccc(NC(=O)CSc2nnc(-c3ccc4nc(-c5ccc(Cl)cc5)[nH]c4c3)o2)cc1 tested on HT29 colon.
Response: 34.6

Request: For the record CN1CCN(Cc2ccc(C(=O)Nc3cccc(Nc4ccc5c(O)cccc5n4)c3)cc2C(F)(F)F)CC1 , what value of growth is listed for HT29 colon?
Response: -50.8

Request: Recorded growth for N#Cc1c(NC(=O)c2ccc(C(F)(F)F)cc2)sc2c1CCC(O)=C2 with HT29 colon, please?
Response: 38.2

Request: Item O=C1Nc2ccc(Cl)cc2/C1=C/c1cccc(OCc2ccccc2)c1 with HT29 colon - growth?
Response: 30.7

Request: # query: growth | item S=c1nc(-c2ccccc2)cc(-c2cc3ccccc3nc2Cl)[nH]1 | system: HT29 colon
Response: 67.6

Request: Notebook: pull reported growth for HT29 colon, entry O=C(c1ccc(Cl)cc1)C1[C@H](c2ccccc2Br)[C@@H](c2ccccc2)NC12C(=O)Nc1ccc(Br)cc12 (stereo partly drawn)
Response: -36

Request: Which growth is reported with HT29 colon for this entry: O=C(NCCCCC(c1ccc(F)cc1)c1ccc(F)cc1)NCCCc1cccnc1 ?
Response: 14.4

Request: Please tell me: growth of COc1ccc2[nH]c(O)c(N=NC(=O)COc3ccc(NC(=O)Nc4ccc(Cl)c(Cl)c4)cc3)c2c1 , system HT29 colon?
Response: -88.4

Request: I'm curious: which growth was measured for COc1cc2c(cc1OC)/C(=C\c1sc(Nc3ccc(O)cc3)nc1O)C(C(=O)O)=N2 tested on HT29 colon?
Response: 10

Request: Query for HT29 colon: what growth does the record show for O=C(Nc1ccc(F)c(Cl)c1)c1cc(-c2ccc(F)cc2F)ccc1O ?
Response: 26.8

Request: HT29 colon / growth / O=C(N=Nc1c(O)[nH]c2ccc(Br)cc12)c1ccc2nc(-c3ccccc3)[nH]c2c1 : value?
Response: -41.1

Request: Lab request: please report growth under test system HT29 colon for O=C1NC(=NC23CC4CC(CC(C4)C2)C3)N/C1=C\c1ccc2ncsc2c1
Response: 13.6

Request: Please tell me: growth of O=C(c1ccc(-n2c(=O)[nH]c3ccccc3c2=O)cc1)N1CCOCC1 , system HT29 colon?
Response: 114

Request: Query growth on HT29 colon for CCN1CCN(c2ccc(NC(=O)Nc3ccc(-c4cc(C(=O)NC)c5ncccc5n4)cc3)cc2C(F)(F)F)CC1
Response: -100

Request: Provide the documented growth with HT29 colon as the system for O=C(c1ccc(Cl)cc1)C1[C@H](c2ccc(Br)cc2)[C@@H](c2ccccc2)NC12C(=O)Nc1ccccc12 (stereo partly drawn)
Response: -52.2

Request: Find growth (HT29 colon) for the entry O=C1NC(=NC23CC4CC(CC(C4)C2)C3)N/C1=C\c1ccc2ncccc2n1
Response: -17.4

Request: Notebook entry, HT29 colon assay: growth of COc1ccc2c3nc4cc(C)c(C)cc4nc3n(CCN(C)C)c2c1 = ?
Response: 31.4

Request: Look up growth with HT29 colon for this compound: CCOc1ccc2ncc(C#Cc3cncc(C(=O)Nc4ccc(CN5CCN(C)CC5)c(C(F)(F)F)c4)c3)n2n1
Response: -51

Request: HT29 colon / growth / Cc1ccc2nc3c(nc2c1)c1cc(I)ccc1n3CCN(C)C : value?
Response: 14.4

Request: Give recorded growth with HT29 colon for the following compound: C=C(C)[C@@H]1CC[C@]2(C)[C@H](CC=C3[C@@H]4CC(C)(C)CC[C@]4(C(=O)N4CCOCC4)CC[C@]32C)[C@@]1(C)CCCN
Response: -91

Request: For the record N#Cc1ccc(-c2nn(-c3ccc(C(=O)O)cc3)cc2CNc2ccc(Cl)cc2)cc1 , what value of growth is listed for HT29 colon?
Response: 100

Request: Reported growth for HT29 colon, given COc1ccc(N(C)c2cc(C#N)nc3ccccc23)cc1/C=C/C(=O)NO ?
Response: -19.5

Request: # get_value(readout= growth, system= HT29 colon) for O=C(c1ccc(O)cc1)C1[C@H](c2ccccc2Br)[C@@H](c2ccccc2)NC12C(=O)Nc1ccc(Br)cc12 (stereo partly drawn)
Response: 26.8

Request: Lab note: need growth with HT29 colon for entry CCCCOc1ccc(Nc2nc3ccccc3nc2Nc2ccc(OCCCC)cc2)cc1 , please look it up.
Response: 73.7

Request: # get_value(readout= growth, system= HT29 colon) for O=c1[nH]c2ccccc2cc1CSc1ccc(Nc2nccc(-c3ccc4ccccc4c3)n2)cc1
Response: 49.9

Request: Form: Entry = Cc1ccc(-c2nc(Nc3ccccc3C(=O)O)c3ccccc3n2)cc1 | System = HT29 colon | growth = ____
Response: 17.8

Request: Kindly state the measured growth obtained for C=C1CCC2C3(C)COC(c4cccc(F)c4)OC3CCC2(C)C1CC(O)C1=CCOC1=O (stereo not drawn) with HT29 colon.
Response: 34.7

Request: For HT29 colon, provide growth of O=C(CNc1nc(-c2ccccc2)cs1)Nc1cccc(Cl)c1 please.
Response: 32.1

Request: Checklist item: growth tested on HT29 colon, entry Cc1cc(=O)oc2cc(OCCCCOc3ccc(/C=C/C(=O)Nc4ccccc4[N+](=O)[O-])cc3)ccc12 , value?
Response: 117

Request: Param readout= growth; system= HT29 colon; entry= Cc1cc(C)nc(NS(=O)(=O)c2ccc(N/C(N)=N/c3nccc(-c4ccccc4)n3)cc2)n1 ; returns value.
Response: 83.5

Request: Form: Entry = Cc1cccc2cc(-c3cc(-c4ccccc4)nc(=S)[nH]3)c(Cl)nc12 | System = HT29 colon | growth = ____
Response: 86.5

Request: GET /values?readout=growth&system=HT29 colon&item= COc1cc2oc(-c3cccc(C(=O)Nc4ccc(Cl)cc4)c3)cc(=O)c2c(OCCNC(=O)CNC(=O)OC(C)(C)C)c1OC
Response: 63.2

Request: Provide the documented growth with HT29 colon as the system for NC1=NC(c2ccccc2Cl)N=C(Nc2nn[nH]n2)N1 (stereo not drawn)
Response: 115

Request: Provide the documented growth with HT29 colon as the system for Nc1nc(Nc2ccccc2)nn1Cc1c(Cl)cccc1Cl
Response: 54.4

Request: Record lookup: for HT29 colon, what growth belongs to CN1CCN(c2ccc(Nc3nc(NCCCNC(=O)c4ccc(Cl)cc4)c4sccc4n3)cc2)CC1 ?
Response: 35.4

Request: For the record Clc1ccc2c(N/N=C/c3c[nH]c4ccc(Br)cc34)ccnc2c1 , what value of growth is listed for HT29 colon?
Response: -3.08

Request: Recall the recorded growth for CNC(=O)c1cccc(N2CCc3c2ccc(NC(=O)Nc2ccc(N4CCN(C)CC4)c(C(F)(F)F)c2)c3F)c1 with HT29 colon and state it.
Response: -88.3

Request: HT29 colon / growth / CC(=O)c1ccc(Nc2nc(SCCC(C)C)nc(-c3ccc(F)cc3)c2C#N)cc1 : value?
Response: 47.9
